# METHOD: Activity at adrenergic receptor 1 alpha assessed as calcium mobilization by FLIPR
pEC50: −log10 of the molar value.
READOUT_KIND: pEC50

Give its pEC50 value. Item: CN1CCN(C[C@H](c2cccc(OC(F)(F)F)c2)C2(O)CCCCC2)CC1.Cl.Cl < 5.00

###

# MEASUREMENT_TARGET: Sodium-dependent serotonin transporter (Homo sapiens)
# Assay type: cell-based, JAR
# Sequence (P31645 whole entry): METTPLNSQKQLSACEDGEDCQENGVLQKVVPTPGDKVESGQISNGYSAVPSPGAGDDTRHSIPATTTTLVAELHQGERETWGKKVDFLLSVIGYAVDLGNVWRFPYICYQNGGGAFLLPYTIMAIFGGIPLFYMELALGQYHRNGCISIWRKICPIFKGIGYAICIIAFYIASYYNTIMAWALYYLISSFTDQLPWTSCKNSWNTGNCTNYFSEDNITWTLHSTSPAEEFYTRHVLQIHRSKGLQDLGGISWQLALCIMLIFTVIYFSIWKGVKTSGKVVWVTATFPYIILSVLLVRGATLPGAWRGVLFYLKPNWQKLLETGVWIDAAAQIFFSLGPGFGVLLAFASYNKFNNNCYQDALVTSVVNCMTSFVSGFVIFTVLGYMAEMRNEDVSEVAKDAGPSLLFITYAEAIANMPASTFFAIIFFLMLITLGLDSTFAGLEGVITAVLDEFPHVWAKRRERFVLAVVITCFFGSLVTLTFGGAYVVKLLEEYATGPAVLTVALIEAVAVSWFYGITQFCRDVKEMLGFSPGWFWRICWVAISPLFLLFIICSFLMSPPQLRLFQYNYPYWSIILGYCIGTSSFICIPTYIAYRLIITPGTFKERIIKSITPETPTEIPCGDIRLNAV
Strictly below 0.2 µM in IC50: t. Otherwise: f.

Would you kindly verify if IC50 of CN(C)CC(c1ccc(Cl)cc1)C1(O)CCCCC1 (stereo unspecified) is strictly less than 0.2 µM? t

Could you do the same for CN(C)CC(c1ccccc1Cl)C1(O)CCCCC1 (stereo unspecified) , please? t

Could you do the same for CN1CCN(CC(c2cccc(Cl)c2)C2(O)CCCCC2)CC1 (stereo unspecified) , please? f

Could you do the same for CN1CCN(CC(c2ccc(OC(F)(F)F)cc2)C2(O)CCCCC2)CC1 (stereo unspecified) , please? f

Could you do the same for OC1(C(CN2CCNCC2)c2cccc(Cl)c2)CCCCC1 (stereo unspecified) , please? f

Could you do the same for OC1(C(CN2CCNCC2)c2ccc(Cl)cc2)CCCCC1 (stereo unspecified) , please? f

###

# METHOD: Plasma concentration in Sprague-Dawley rat at 1 mg/kg, iv after 2 hrs
# Format: ADME, organism-based
# Design: dose 1 mg/kg, route intravenous
READOUT_KIND: concentration at 2 h (ng/mL)
Response body: numeric value in ng/mL, unit text excluded.

Give its concentration at 2 h value. Item: CN1CCN(C[C@H](c2cccc(OC(F)(F)F)c2)C2(O)CCCCC2)CC1.Cl.Cl 55.4

###

# METHOD: Plasma concentration in Sprague-Dawley rat at 30 mg/kg, po after […]
# Type: ADME, organism-based
# Set-up: dose 30 mg/kg, route oral
READOUT_KIND: concentration at […] (ng/mL)
Response body: numeric value in ng/mL, unit text excluded.

Give its concentration at […] value. Item: CN1CCN(C[C@H](c2cccc(OC(F)(F)F)c2)C2(O)CCCCC2)CC1.Cl.Cl 115

###

# MEASUREMENT_TARGET: 5-hydroxytryptamine receptor 6 (Homo sapiens)
# Sequence (P50406 whole entry): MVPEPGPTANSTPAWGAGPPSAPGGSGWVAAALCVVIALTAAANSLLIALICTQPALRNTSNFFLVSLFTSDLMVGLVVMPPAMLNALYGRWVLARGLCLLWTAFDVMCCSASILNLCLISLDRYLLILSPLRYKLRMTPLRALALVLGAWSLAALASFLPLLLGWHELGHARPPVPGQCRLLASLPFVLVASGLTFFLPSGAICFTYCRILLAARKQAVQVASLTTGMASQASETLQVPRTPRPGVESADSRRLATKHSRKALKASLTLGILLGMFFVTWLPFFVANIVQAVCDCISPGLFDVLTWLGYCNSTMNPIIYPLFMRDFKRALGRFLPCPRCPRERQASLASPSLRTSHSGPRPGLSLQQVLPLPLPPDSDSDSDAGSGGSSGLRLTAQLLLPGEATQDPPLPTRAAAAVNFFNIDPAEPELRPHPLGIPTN
pIC50: −log10 of the molar value.
READOUT_KIND: pIC50

Give its pIC50 value. Item: CN1CCN(C[C@H](c2cccc(OC(F)(F)F)c2)C2(O)CCCCC2)CC1.Cl.Cl < 5.00

###

# METHOD: Plasma concentration in Sprague-Dawley rat at 30 mg/kg, po after 2 hrs
# Format: ADME, organism-based
# Set-up: dose 30 mg/kg, route oral
READOUT_KIND: concentration at 2 h (ng/mL)
Response body: numeric value in ng/mL, unit text excluded.

Give its concentration at 2 h value. Item: CN1CCN(C[C@H](c2cccc(OC(F)(F)F)c2)C2(O)CCCCC2)CC1.Cl.Cl 182

###

# MEASUREMENT_TARGET: 5-hydroxytryptamine receptor 1D (Homo sapiens)
# Sequence (P28221 whole entry): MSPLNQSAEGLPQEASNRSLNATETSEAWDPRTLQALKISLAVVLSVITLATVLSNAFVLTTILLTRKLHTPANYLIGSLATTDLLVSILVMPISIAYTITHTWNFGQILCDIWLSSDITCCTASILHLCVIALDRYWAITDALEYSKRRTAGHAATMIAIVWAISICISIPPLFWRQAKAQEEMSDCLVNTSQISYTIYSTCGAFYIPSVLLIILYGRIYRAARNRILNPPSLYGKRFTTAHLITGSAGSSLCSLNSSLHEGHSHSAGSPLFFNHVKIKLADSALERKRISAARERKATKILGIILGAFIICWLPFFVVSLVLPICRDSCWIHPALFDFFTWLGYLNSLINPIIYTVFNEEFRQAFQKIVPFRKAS
# METHOD: Activity at 5HT1D receptor assessed as calcium mobilization by FLIPR
READOUT_KIND: EC50

Request: EC50, test system 5-hydroxytryptamine receptor 1D (Homo sapiens), entry CN1CCN(C[C@H](c2cccc(OC(F)(F)F)c2)C2(O)CCCCC2)CC1.Cl.Cl > 10 µM

###

I'd appreciate it if you could supply Activity values for the items below.
# MEASUREMENT_TARGET: Sodium-dependent dopamine transporter (Homo sapiens, UniProt Q01959)
# Sequence (Q01959 whole entry): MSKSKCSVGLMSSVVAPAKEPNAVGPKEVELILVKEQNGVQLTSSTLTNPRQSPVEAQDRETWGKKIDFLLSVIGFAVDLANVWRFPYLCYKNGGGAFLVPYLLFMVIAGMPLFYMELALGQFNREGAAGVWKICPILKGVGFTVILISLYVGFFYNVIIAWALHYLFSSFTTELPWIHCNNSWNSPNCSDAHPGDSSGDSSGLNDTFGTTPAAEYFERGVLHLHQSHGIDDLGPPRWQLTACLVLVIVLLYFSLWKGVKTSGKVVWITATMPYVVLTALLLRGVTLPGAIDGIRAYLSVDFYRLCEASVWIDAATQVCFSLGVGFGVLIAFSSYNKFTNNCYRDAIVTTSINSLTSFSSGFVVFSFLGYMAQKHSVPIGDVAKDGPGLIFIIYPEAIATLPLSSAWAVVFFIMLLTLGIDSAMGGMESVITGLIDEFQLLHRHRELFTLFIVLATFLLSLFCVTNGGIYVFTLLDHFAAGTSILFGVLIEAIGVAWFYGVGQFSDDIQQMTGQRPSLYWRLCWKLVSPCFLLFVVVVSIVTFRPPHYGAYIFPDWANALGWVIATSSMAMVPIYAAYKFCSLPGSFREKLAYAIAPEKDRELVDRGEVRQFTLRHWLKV
# METHOD: Displacement of [3H]WIN-35428 from human recombinant dopamine transporter expressed in CHO cells at 1000 nM
# Assay type: cell-based
Response body: numeric value in %, unit text excluded.

Request: Activity, test system Sodium-dependent dopamine transporter (Homo sapiens, UniProt Q01959), entry OC1(C(CN2CCNCC2)c2ccc(F)cc2)CCCCC1 (configuration not stated) 22

Could you do the same for CN1CCN(CC(c2ccc(OC(F)(F)F)cc2)C2(O)CCCCC2)CC1 (configuration not stated) , please? 13

Could you do the same for OC1(C(CN2CCNCC2)c2cccc(F)c2)CCCCC1 (configuration not stated) , please? 22

Could you do the same for CN1CCN(CC(c2ccc(Cl)cc2)C2(O)CCCCC2)CC1 (configuration not stated) , please? 26

Could you do the same for CN(C)CC(c1ccccc1Cl)C1(O)CCCCC1 (configuration not stated) , please? 9

Could you do the same for OC1(C(CN2CCNCC2)c2cccc(C(F)(F)F)c2)CCCCC1 (configuration not stated) , please? 4

Could you do the same for COc1ccc(C(CN2CCNCC2)C2(O)CCCCC2)cc1 (configuration not stated) , please? 9

###

# MEASUREMENT_TARGET: Sodium-dependent serotonin transporter (Homo sapiens, UniProt P31645)
# METHOD: Inhibition of 5HT uptake at human SERT expressed in human JAR cells at 1000 nM
# Type: cell-based
# Sequence (P31645 whole entry, looked up): as the sequence (P31645 whole entry) above
Lab note: compare inhibition against 10%. Equal or greater, write met. Smaller, write not met.

Check this compound for inhibition at or above 10%: OC1([C@@H](CN2CCNCC2)c2cccc(OC(F)(F)F)c2)CCCCC1 met

Could you do the same for CN1CCN(CC(c2ccc(F)cc2)C2(O)CCCCC2)CC1 (stereo not given) , please? met

Could you do the same for COc1ccc(C(CN2CCN(C)CC2)C2(O)CCCCC2)cc1 (stereo not given) , please? met

Could you do the same for CN1CCN(CC(c2cccc(C(F)(F)F)c2)C2(O)CCCCC2)CC1 (stereo not given) , please? met

Could you do the same for COc1cccc(C(CN2CCNCC2)C2(O)CCCCC2)c1 (stereo not given) , please? not met

Could you do the same for COc1ccc(C(CN2CCNCC2)C2(O)CCCCC2)cc1 (stereo not given) , please? met

Could you do the same for OC1(C(CN2CCNCC2)c2cccc(OC(F)(F)F)c2)CCCCC1 (stereo not given) , please? not met

Could you do the same for CN1CCN(CC(c2cccc(F)c2)C2(O)CCCCC2)CC1 (stereo not given) , please? met

Could you do the same for OC1([C@H](CN2CCNCC2)c2cccc(OC(F)(F)F)c2)CCCCC1 , please? not met

Could you do the same for CN1CCN(C[C@@H](c2cccc(Cl)c2)C2(O)CCCCC2)CC1 , please? not met

Could you do the same for OC1(C(CN2CCNCC2)c2cccc(F)c2)CCCCC1 (stereo not given) , please? met

Could you do the same for CN1CCN(C[C@@H](c2cccc(OC(F)(F)F)c2)C2(O)CCCCC2)CC1 , please? not met

Could you do the same for CN1CCN(C[C@H](c2cccc(Cl)c2)C2(O)CCCCC2)CC1 , please? not met

Could you do the same for OC1(C(CN2CCNCC2)c2ccc(F)cc2)CCCCC1 (stereo not given) , please? met

Could you do the same for COc1cccc(C(CN2CCN(C)CC2)C2(O)CCCCC2)c1 (stereo not given) , please? met
